Task for the reader: assign each of the following binders its reported IC50.
Measured On: T1, recombinant human PD-1-Fc-Biotin (human, UniProt Q15116 25-167, biotin (site not stated))
T1 construct: also called antigen protein human PD-1; not shown: Fc
Assay Text: competitive ELISA; PD-L1-mFc coated, 0.5 µg/mL PD-1-Fc-Biotin, streptavidin-HRP
# value in nM; strip the unit string

Incoming: Look up IC50 for this binder: MHPD1-A-45 H Fc (Fc fusion, not shown: Fc) QVQLVESGGGLVQPGGSLRLSCATSHLRRSIYAMGWFRQAPGKGLEFVAGIGWAYATTYYADSVKGRFTISRDNTKNTLYLQMNSLRAEDTAVYYCAADLDHSGFDYWGQGTLVTVSS
Outgoing: 0.944

Incoming: Can you look up the measured IC50 of MHPD1-A-20 H Fc (Fc fusion, not shown: a dimerising Fc or GST; small tags and cut ends) VHH: QVQLVESGGGLVQPGGSLRLSCATSGSRKSIYAMGWFRQAPGKGLEFVAGIGWAYATTYYADSVKGRFTISRDNTKNTLYLQMNSLRAEDTAVYYCAADLDHSGFDYWGQGTLVTVSS for me?
Outgoing: 1.21

Incoming: Fill in: IC50 of MHPD1-A-39 H Fc (Fc fusion, not shown: Fc) QVQLVESGGGLVQPGGSLRLSCATSGSRRSIYAMGWFRQAPGKGLEFVAGIGWAYATEYYADSVKGRFTISRDNTKNTLYLQMNSLRAEDTAVYYCAADLDHSGFDYWGQGTLVTVSS is ___
Outgoing: 0.85

Incoming: IC50 lookup needed for MHPD1-A-21 H Fc (Fc fusion, not shown: a dimerising Fc or GST; small tags and cut ends) VHH: QVQLVESGGGLVQPGGSLRLSCATSGSRRSIYAMGWFRQAPGKGLEFVAGIGWAYATSYYADSVKGRFTISRDNTKNTLYLQMNSLRAEDTAVYYCAADLDHSGFDYWGQGTLVTVSS , thanks.
Outgoing: 1.61

Incoming: Bench note: what IC50 did MHPD1-A-49 H Fc (Fc fusion, not shown: a dimerising Fc or GST; small tags and cut ends) VHH: QVQLVESGGGLVQPGGSLRLSCATSGSRRSIYAMGWFRQAPGKGLEFVAGIGWAYATTYYADSVKGRFTISRDNTKNTLYLQMNSLRAEDTAVYYCAADLDRVGFDYWGQGTLVTVSS show?
Outgoing: 1.26

Incoming: Recorded IC50 of MHPD1-A-7 H Fc (Fc fusion, parent of the second round; also called parent MHPD1-A-7 H Fc; not shown: Fc) QVQLVESGGGLVQPGGSLRLSCATSGSRRSIYAMGWFRQAPGKGLEFVAGIGWAYATTYYADSVKGRFTISRDNTKNTLYLQMNSLRAEDTAVYYCAADLDHSGFDYWGQGTLVTVSS , please.
Outgoing: 0.778

Incoming: State the recorded IC50 for this entry: MHPD1-A-37 H Fc (Fc fusion, not shown: a dimerising Fc or GST; small tags and cut ends) VHH: QVQLVESGGGLVQPGGSLRLSCATSGARRSIYAMGWFRQAPGKGLEFVAGIGWAYATTYYADSVKGRFTISRDNTKNTLYLQMNSLRAEDTAVYYCAADLDRTGFDYWGQGTLVTVSS
Outgoing: 1.54

Incoming: Given the binder MHPD1-A-32 H Fc (Fc fusion, not shown: Fc) QVQLVESGGGLVQPGGSLRLSCATSKNRRSIYAMGWFRQAPGKGLEFVAGIGWAYATTYYADSVKGRFTISRDNTKNTLYLQMNSLRAEDTAVYYCAADLDHSGFDYWGQGTLVTVSS , what is its reported IC50?
Outgoing: 1.72
